- System: NCI-H460 lung
- TEST: NCI tumour cell line growth inhibition, 48 h
Parameter: TGI. Scope: all listed entries.
QUANTITY_NAME: TGI

>>> test_result("COC(=O)c1ccc(-c2nc(C#N)c(N)o2)cc1")
"> 100 µM"
>>> test_result("CC(=O)O[C@H]1C#C/C=C\\C#CC[C@@H]2C(=O)N(C(=O)OC(C)(C)C)[C@@H]12")
"38.7 µM"
>>> test_result("CC(C)(C)N=C1CC(C)(C)c2ccccc2C(=Nc2ccccc2)S1")
"> 100 µM"
>>> test_result("Cc1cc(NS(=O)(=O)c2ccc(Nc3c4ccccc4nc4c(C(=O)Nc5ccc(S(=O)(=O)N=C(N)N)cc5)cccc34)cc2)no1")
"> 100 µM"
>>> test_result("C#CCNC(Cc1cnc[nH]1)C(=O)O (stereo not given)")
"> 100 µM"
>>> test_result("O=C(NCc1cccnc1)/C(=C\\c1ccc(Br)cc1)S(=O)(=O)c1ccccc1")
"2.29 µM"
>>> test_result("COC(=O)c1sc(=S)sc1SCc1ccccc1CSc1sc(=S)sc1C(=O)OC")
"> 100 µM"
>>> test_result("CC[C@]12C=CCN3CCC4(c5cc(N=Nc6ccccc6)c(OC)cc5N(C)[C@H]4[C@@](O)(C(=O)OC)[C@@H]1OC(C)=O)[C@@H]32 (stereo not given in full)")
"33.5 µM"
>>> test_result("C=C1CCC2C3(C)COC(c4ccc(NC(C)=O)cc4)OC3CCC2(C)C1C/C=C1/C(=O)OCC1O (stereo not given)")
"> 100 µM"
>>> test_result("CC(=O)OCC1OC(OC2C(COC(C)=O)OC(OCCC[S-])C(OC(C)=O)C2OC(C)=O)C(OC(C)=O)C(OC(C)=O)C1OC(C)=O.[Au+].c1ccc(CN2[CH-]N(Cc3ccccc3)C(c3ccccc3)=C2c2ccccc2)cc1 (stereo not given)")
"12.8 µM"
>>> test_result("O=C(c1ccccc1Nc1ccnc(C(F)(F)F)c1)N1CCN(c2cccc(Cl)c2)CC1")
"44.6 µM"
>>> test_result("CCOC(=O)c1nc2c3c(ncn2n1)Oc1c(c(-c2ccccc2)nn1-c1ccccc1)C3c1ccc(Cl)cc1 (stereo not given)")
"> 100 µM"
>>> test_result("Cc1cc2ccccc2n1CC(=O)NCC(C)C")
"> 100 µM"
>>> test_result("O=C(c1cc(O)ccc1O)c1ccccc1C(Cl)(Cl)Cl")
"> 100 µM"
>>> test_result("CCOC(=O)C1N(S(=O)(=O)c2ccc(C)cc2)CCC12c1ccccc1N(C(C)=O)C2C(/C=C/C(=O)OC)=C/C(=O)OC (stereo not given)")
"> 100 µM"
>>> test_result("CC1(C)O[C@@H](CO)[C@H]([C@@]23OC[C@H]4OC(C)(C)OC4[C@@H]2OC(C)(C)O3)O1 (stereo not given in full)")
"> 100 µM"
>>> test_result("OC(c1ccc(Cl)cc1)(c1ccc(Cl)cc1)C(O)(c1ccc(Cl)cc1)c1ccc(Cl)cc1")
"> 100 µM"
>>> test_result("O=C(C1=C(C(=O)c2ccccc2)SC2(S1)C(C(=O)c1ccccc1)=C(C(=O)c1ccccc1)Sc1c2ssc1=O)c1ccccc1")
"> 100 µM"
>>> test_result("Cc1cc(C)cc(-n2c3nc(=O)n(C)c(=O)c-3nc3ccccc32)c1")
"94.4 µM"
>>> test_result("Cc1nnc2cc(C(=O)O)c3ccccc3n2c1=O")
"> 10 µM"
